- Tested on: RANKL
- ASSAY METHOD TEXT: RANKL gene expression in Ocy454 cells (RT-qPCR);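 note: Ocy454 cells moved to 37 °C for osteocytic differentiation before compound exposure, RANKL mRNA by SYBR Green qRT-PCR, 2^−ΔΔCT with β-actin normalization, duplicate wells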
- CONDITION NOTES: maximal RANKL fold induction versus DMSO, four hours
QUANTITY MEASURED: RANKL Fold Induction (fold)

INSERT INTO results (molecule, measured_target, measured) VALUES
  ('CN1CCOCC12CCN(c1cccc3ccc(-n4cnc5cc(OCC6(C)COC6)ccc54)nc13)CC2 [Example 10]', 'RANKL', 58.64),
  ('CC1(COc2ccc3c(c2)ncn3-c2ccc3cccc(C4CCNC4)c3n2)COC1 (centres unmarked) [Example 16]', 'RANKL', 27.76),
  ('CN1CCC(c2cccc3ccc(-n4cnc5cc(OCC6(C)COC6)ccc54)nc23)C1 (centres unmarked) [Example 17]', 'RANKL', 12.73),
  ('COc1ccc(OC)c(-c2cnc3cc(C(=O)NCc4cccnc4)ccn23)c1 [Example 31]', 'RANKL', 0.90),
  ('CC1(COc2ccc3c(c2)ncn3-c2ccc3cccc(N4CC5(CC(N)C5)C4)c3n2)COC1 [Example 2]', 'RANKL', 1.43),
  ('N#Cc1ccc(-c2cnc3cc(C(=O)NCc4nc5ccccc5o4)ccn23)cc1 [Example 26]', 'RANKL', 0.55),
  ('Cc1cn(-c2cccc3ccc(-n4cnc5cc(OCC6(C)COC6)ccc54)nc23)cn1 [Example 1]', 'RANKL', 3.08),
  ('CC1(COc2ccc3c(c2)ncn3-c2ccc3cccc(N4CC(N)C4)c3n2)COC1 [Example 7]', 'RANKL', 30.37),
  ('Cc1ccc(CNC(=O)c2ccn3c(-c4ccc(C#N)cc4)cnc3c2)cn1 [Example 19]', 'RANKL', 1.04),
  ('CCn1cc(-c2ccn3c(-c4ccc(C#N)c(C)c4)cnc3c2)cn1 [Example 47]', 'RANKL', 17.43),
  ('N#Cc1ccc(-c2cnc3cc(C(=O)NCc4nc5ccncc5[nH]4)ccn23)cc1 [Example 25]', 'RANKL', 1.10),
  ('N#Cc1ccc(-c2cnc3cc(-c4cnn(C5CC5)c4)ccn23)cc1 [Example 49]', 'RANKL', 6.31),
  ('N#Cc1ccc(-c2cnc3cc(C(=O)N4CCn5c(nc6ccccc65)C4)ccn23)cc1 [Example 28]', 'RANKL', 1.25),
  ('CCc1nnc(-c2ccc(-c3cnc4cc(-c5cnn(C)c5)ccn34)cc2OC)o1 [Example 57]', 'RANKL', 13.68),
  ('CN1CC(c2cccc3ccc(-n4cnc5cc(OCC6(C)COC6)ccc54)nc23)C1 [Example 15]', 'RANKL', 88.34),
  ('CC1(COc2ccc3c(c2)ncn3-c2ccc3cccc(N4CCC5(CCN5)CC4)c3n2)COC1 [Example 3]', 'RANKL', 57.08),
  ('CCn1nnc(-c2ccn3c(-c4ccc(C#N)cc4)cnc3c2)n1 [Example 67]', 'RANKL', 0.47);

====

- MEASURED TARGET: Recombinant SIK2 (Homo sapiens (Human), UniProt Q9H0K1)
- Sequence (Q9H0K1 whole entry): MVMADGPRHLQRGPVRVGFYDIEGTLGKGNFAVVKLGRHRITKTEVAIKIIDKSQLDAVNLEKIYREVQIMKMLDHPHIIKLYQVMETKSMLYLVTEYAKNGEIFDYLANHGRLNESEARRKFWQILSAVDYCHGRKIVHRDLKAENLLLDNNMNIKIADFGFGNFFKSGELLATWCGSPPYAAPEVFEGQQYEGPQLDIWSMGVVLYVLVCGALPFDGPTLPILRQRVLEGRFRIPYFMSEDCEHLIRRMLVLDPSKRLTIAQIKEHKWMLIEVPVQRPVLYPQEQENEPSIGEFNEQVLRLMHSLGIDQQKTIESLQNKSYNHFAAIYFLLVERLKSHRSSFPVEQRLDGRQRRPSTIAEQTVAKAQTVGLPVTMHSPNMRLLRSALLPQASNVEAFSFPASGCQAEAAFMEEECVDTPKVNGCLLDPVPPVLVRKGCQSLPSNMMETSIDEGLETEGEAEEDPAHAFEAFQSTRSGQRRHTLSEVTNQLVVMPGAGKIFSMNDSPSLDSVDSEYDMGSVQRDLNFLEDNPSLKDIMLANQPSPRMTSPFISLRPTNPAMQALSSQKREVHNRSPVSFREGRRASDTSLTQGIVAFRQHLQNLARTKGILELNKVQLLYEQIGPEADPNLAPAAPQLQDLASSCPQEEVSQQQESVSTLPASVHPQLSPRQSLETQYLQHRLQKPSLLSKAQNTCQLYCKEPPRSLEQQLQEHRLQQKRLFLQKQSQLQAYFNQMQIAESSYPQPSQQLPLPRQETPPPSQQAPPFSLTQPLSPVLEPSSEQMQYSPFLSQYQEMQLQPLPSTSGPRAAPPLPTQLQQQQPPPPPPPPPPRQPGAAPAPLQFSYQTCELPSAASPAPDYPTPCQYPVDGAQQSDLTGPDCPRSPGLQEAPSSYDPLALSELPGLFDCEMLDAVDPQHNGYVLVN
- ASSAY METHOD TEXT: biochemical
- CONDITION NOTES: recombinant SIK2 2.5 nM, 1 μM ATP; read-out: SIK2 IC50
pIC50: −log10 of the molar value.
Binary call on pIC50: Fulfilled from 8 upward, Not fulfilled beneath that.

INSERT INTO assay_data (substance_smiles, measured_target, answer_label) VALUES
  ('CN1CCOCC12CCN(c1cccc3ccc(-n4cnc5cc(OCC6(C)COC6)ccc54)nc13)CC2', 'Recombinant SIK2 (Homo sapiens (Human), UniProt Q9H0K1)', 'Fulfilled'),
  ('N#Cc1ccc(-c2cnn3cc(C(=O)NCc4cccnc4)ccc23)cc1', 'Recombinant SIK2 (Homo sapiens (Human), UniProt Q9H0K1)', 'Not fulfilled'),
  ('CN1CC(Oc2cccc3ccc(-n4cnc5cc(OCC6(C)COC6)ccc54)nc23)C1', 'Recombinant SIK2 (Homo sapiens (Human), UniProt Q9H0K1)', 'Not fulfilled');
